I'd be grateful if you could share measured z-score of subpopulation abundance for these entries.
# Test system: Saccharomyces cerevisiae BY4741 SeMeCo community
# ASSAY_PROTOCOL: z-score of subpopulation abundance vs DMSO median, subpopulation auxotrophic for LM; higher = larger share of this subpopulation than in DMSO controls
# CONDITION: 10 µM; 24 h; SM minimal medium; subpopulation (auxotrophy): LM
Counter-ions that a name gives are not always drawn.
Please reply with the value in numeric form only.

Input: Item under review: `CN1C(C(=O)Nc2ccccn2)=C(O)c2sc(Cl)cc2S1(=O)=O` . Reported z-score of subpopulation abundance?
Output: -0.22

Input: Try the compound CCCN1CCCC[C@H]1C(=O)Nc1c(C)cccc1C [Ropivacaine]
Output: 0.11

Input: Try the compound N=C(N)NC(=N)N1CCOCC1 [Moroxydine HCl]
Output: 0.58

Input: Try the compound `C[C@]12CC[C@@H]3c4ccc(O)cc4CC[C@H]3[C@@H]1CC[C@@H]2O`
Output: -0.16

Input: Try the compound `C#C[C@]1(O)CC[C@H]2[C@@H]3CCC4=CC(=O)CC[C@@H]4[C@H]3C(=C)C[C@@]21CC`
Output: -0.7

Input: Try the compound `CC[C@H](Nc1ncnc2[nH]cnc12)c1nc2cccc(F)c2c(=O)n1-c1ccccc1`
Output: -0.23

Input: Try the compound Clc1ccc(C(Cn2ccnc2)OCc2ccsc2Cl)c(Cl)c1 (centres undefined)
Output: -1.99

Input: Try the compound `Cc1cc(C)nc(O)n1.O=C(Nc1ccc([N+](=O)[O-])cc1)Nc1ccc([N+](=O)[O-])cc1`
Output: -1.07

Input: Try the compound Cc1onc(-c2c(F)cccc2Cl)c1C(=O)N[C@@H]1C(=O)N2[C@@H]1SC(C)(C)[C@@H]2C(=O)O [Flucloxacillin sodium]
Output: -0.65

Input: Try the compound Cc1c(-c2ccccc2)oc2c(C(=O)OCCN3CCCCC3)cccc2c1=O [Flavoxate HCl]
Output: 0.22

Input: Try the compound Clc1ccc(C(Cn2ccnc2)OCc2csc3c(Cl)cccc23)c(Cl)c1 (centres undefined) [Sertaconazole nitrate]
Output: -3.39

Input: Try the compound Cc1nnc(SCC2=C(C(=O)O)N3C(=O)[C@@H](NC(=O)Cn4cnnn4)[C@H]3SC2)s1 [Cefazolin Sodium]
Output: 0.26

Input: Try the compound `N=C(N)NS(=O)(=O)c1ccc(N)cc1`
Output: -0.87

Input: Try the compound `CN1CCc2cc3c(cc2C(=O)Cc2ccc4c(c2C1)OCO4)OCO3`
Output: 1.78

Input: Try the compound CC[C@@H]1C(=O)OC[C@@H]1Cc1cncn1C [Pilocarpine HCl]
Output: 0.75

Input: Try the compound COc1ccc2[nH]c([S+]([O-])Cc3ncc(C)c(OC)c3C)nc2c1 (centres undefined) [Omeprazole Sodium]
Output: -0.57

Input: Try the compound CNCCC(Oc1ccc(C(F)(F)F)cc1)c1ccccc1 (centres undefined) [Fluoxetine HCl]
Output: 0

Input: Try the compound CN(C)CCOc1ccc(/C(=C(/CCCl)c2ccccc2)c2ccccc2)cc1 [Toremifene Citrate]
Output: 0.69

Input: Try the compound Cc1cc(C)nc(NS(=O)(=O)c2ccc(N)cc2)n1 [Sulfamethazine]
Output: 0.84

Input: Try the compound CCc1nn(CCCN2CCN(c3cccc(Cl)c3)CC2)c(=O)n1CCOc1ccccc1 [Nefazodone hydrochloride]
Output: -0.3

Input: Try the compound C[N+]1(C)[C@@H]2C[C@@H](OC(=O)C(O)(c3cccs3)c3cccs3)C[C@H]1[C@@H]1O[C@@H]12 [Tiotropium Bromide hydrate]
Output: -0.42

Input: Try the compound CC[C@H](C)C(=O)O[C@H]1C[C@H](O)C=C2C=C[C@H](C)[C@H](CC[C@@H](O)C[C@@H](O)CC(=O)O)[C@H]21 [Pravastatin sodium]
Output: 1.93

Input: Try the compound `O=C1CCc2cc(OCCCCc3nnnn3C3CCCCC3)ccc2N1`
Output: -0.83

Input: Try the compound C=C[C@H]1CN2CC[C@H]1C[C@@H]2[C@@H](O)c1ccnc2ccc(OC)cc12 [Quinidine sulfate]
Output: 2.28

Input: Try the compound CN1[C@@H]2CC[C@H]1C[C@@H](OC(c1ccccc1)c1ccccc1)C2 [Benztropine mesylate]
Output: 0.22

Input: Try the compound COc1c(N2CCNC(C)C2)c(F)cc2c(=O)c(C(=O)O)cn(C3CC3)c12 (centres undefined)
Output: -0.79

Input: Try the compound `CC(=O)NC[C@H]1CN(c2ccc(N3CCOCC3)c(F)c2)C(=O)O1`
Output: 0.19

Input: Try the compound CN(C)CCCN1c2ccccc2CCc2ccc(Cl)cc21 [Clomipramine HCl]
Output: -0.41

Input: Try the compound `CCC1(c2ccccc2)C(=O)NCNC1=O`
Output: -0.37

----------
I'd be grateful if you could share measured z-score of subpopulation abundance for these entries.
# System: Saccharomyces cerevisiae BY4741 SeMeCo community
# ASSAY_PROTOCOL: z-score of subpopulation abundance vs DMSO median, subpopulation auxotrophic for HLM; higher = larger share of this subpopulation than in DMSO controls
# CONDITION: 10 µM; 24 h; SM minimal medium; subpopulation (auxotrophy): HLM
Counter-ions that a name gives are not always drawn.
Please reply with the value in numeric form only.

Input: Item under review: `CC(=O)OCC(CCn1cnc2cnc(N)nc21)COC(C)=O` . Reported z-score of subpopulation abundance?
Output: 1.57

Input: Try the compound C[N+]1(C)[C@@H]2C[C@@H](OC(=O)C(O)(c3cccs3)c3cccs3)C[C@H]1[C@@H]1O[C@@H]12 [Tiotropium Bromide hydrate]
Output: -0.78

Input: Try the compound Nc1ccc(S(=O)(=O)Nc2ncccn2)cc1 [Sodium sulfadiazine]
Output: -0.23

Input: Try the compound `CN(CCN1CCC(OC(=O)Nc2ccccc2-c2ccccc2)CC1)C(=O)c1ccc(CN2CCC(C(N)=O)CC2)cc1`
Output: -0.49

Input: Try the compound Clc1ccc(COC(Cn2ccnc2)c2ccc(Cl)cc2Cl)c(Cl)c1 (centres undefined) [Miconazole Nitrate]
Output: 19.4

Input: Try the compound CC(C)(C)C1CCC(CC2=C(O)c3ccccc3C(=O)C2=O)CC1 (centres undefined)
Output: 0.05

Input: Try the compound `CCc1nc(N)nc(N)c1-c1ccc(Cl)cc1`
Output: -0.3

Input: Try the compound N=C(N)NC(=O)c1nc(Cl)c(N)nc1N [Amiloride HCl]
Output: 3.24

Input: Try the compound `CCn1cc(C(=O)O)c(=O)c2cnc(N3CCNCC3)nc21`
Output: -0.37

Input: Try the compound COc1ccccc1N1CCN(CCCNc2cc(=O)n(C)c(=O)n2C)CC1 [Urapidil HCl]
Output: -0.67

Input: Try the compound `Cc1c(OCC(F)(F)F)ccnc1C[S@@+]([O-])c1nc2ccccc2[nH]1`
Output: -0.96

Input: Try the compound CC(C(=O)O)c1ccc2c(c1)CC(=O)c1ccccc1S2 (centres undefined)
Output: 0.64

Input: Try the compound `COc1cc(C(C)=O)ccc1OCCCN1CCC(c2noc3cc(F)ccc23)CC1`
Output: 0.44

Input: Try the compound `C/C(=C\C(=O)OCCCCCCCCC(=O)O)C[C@@H]1OC[C@H](C[C@@H]2O[C@H]2[C@@H](C)[C@H](C)O)[C@@H](O)[C@H]1O`
Output: -0.09

Input: Try the compound CCCCCCCCN=C(N)NC(N)=NCc1ccc(Cl)c(Cl)c1 [Olanexidine Hydrochloride semihydrate]
Output: 72.9

Input: Try the compound Cc1ncc([N+](=O)[O-])n1CC(O)CCl (centres undefined)
Output: -0.03

Input: Try the compound COc1ccccc1OCC(O)CN1CCN(CC(=O)Nc2c(C)cccc2C)CC1 (centres undefined) [Ranolazine 2HCl]
Output: -0.72

Input: Try the compound `C[C@]1(COc2ccc(N3CCC(Oc4ccc(OC(F)(F)F)cc4)CC3)cc2)Cn2cc([N+](=O)[O-])nc2O1`
Output: 0.05

Input: Try the compound COCCOC(=O)C1=C(C)NC(C)=C(C(=O)OC/C=C/c2ccccc2)C1c1cccc([N+](=O)[O-])c1 (centres undefined)
Output: -0.44

----------
# Tested on: Saccharomyces cerevisiae BY4741 SeMeCo community
# ASSAY_PROTOCOL: z-score of subpopulation abundance vs DMSO median, subpopulation auxotrophic for HM; higher = larger share of this subpopulation than in DMSO controls
# CONDITION: 10 µM; 24 h; SM minimal medium; subpopulation (auxotrophy): HM
Where a name gives a salt, the structure may show the parent alone.
Categorize each record by its z-score of subpopulation abundance using bottom end (below -0.4), midrange (-0.4 to below 0.1), top end (0.1 or more)

Input: Sort CN(C)CCN1C(=O)c2cccc3cc(N)cc(c23)C1=O [Amonafide] into one of the categories.
Output: midrange

Input: Try the compound COc1ccc2cc3[n+](cc2c1OC)CCc1cc2c(cc1-3)OCO2 [Berberine chloride]
Output: midrange

Input: Try the compound c1ccc(-c2ccc(C(c3ccccc3)n3ccnc3)cc2)cc1 (stereo not drawn)
Output: bottom end

Input: Try the compound Nc1ccc2cc3ccc(N)cc3nc2c1 [Proflavine Hemisulfate]
Output: top end

Input: Try the compound COc1ccc(CN2CCN(C(c3ccc(F)cc3)c3ccc(F)cc3)CC2)c(OC)c1OC [Lomerizine 2HCl]
Output: top end

Input: Try the compound Cn1c(=O)c2c(ncn2CC(O)CO)n(C)c1=O (stereo not drawn)
Output: bottom end

Input: Try the compound CC(=O)N1CCN(c2ccc(OCC3COC(Cn4ccnc4)(c4ccc(Cl)cc4Cl)O3)cc2)CC1 (stereo not drawn)
Output: bottom end

Input: Try the compound `Nc1nc2c(ncn2COCCO)c(=O)[nH]1`
Output: bottom end

Input: Try the compound `Cc1ccc2c(Cl)cc(Cl)c(O)c2n1`
Output: top end

Input: Try the compound `COc1ccc(C(Cl)=C(c2ccc(OC)cc2)c2ccc(OC)cc2)cc1`
Output: top end

Input: Try the compound CN(C)C(=O)COC(=O)Cc1ccc(OC(=O)c2ccc(NC(=N)N)cc2)cc1 [Camostat Mesilate]
Output: midrange

Input: Try the compound CCN(CC)CCOC(=O)c1ccc(N)cc1 [Procaine HCl]
Output: bottom end

Input: Try the compound CCC[C@@H]1C[C@@H](C(=O)N[C@@H]([C@H]2O[C@H](SC)[C@H](OP(=O)(O)O)[C@@H](O)[C@H]2O)[C@H](C)Cl)N(C)C1 [Clindamycin Phosphate]
Output: top end

Input: Try the compound `CC(=O)OCC1=C(C(=O)O)N2C(=O)[C@@H](NC(=O)CSc3ccncc3)[C@H]2SC1`
Output: top end

Input: Try the compound COc1ccccc1N1CCN(CCCNc2cc(=O)n(C)c(=O)n2C)CC1 [Urapidil HCl]
Output: bottom end

Input: Try the compound Cc1c(-c2ccc(O)cc2)n(Cc2ccc(OCCN3CCCCCC3)cc2)c2ccc(O)cc12 [Bazedoxifene HCl]
Output: top end

Input: Try the compound `Nc1ccc(C(=O)O)c(O)c1`
Output: midrange

Input: Try the compound COC(=O)C1=C(C)NC(C)=C(C(=O)OCCN2CCN(C(c3ccccc3)c3ccccc3)CC2)C1c1cccc([N+](=O)[O-])c1 (stereo not drawn) [Manidipine 2HCl]
Output: top end

Input: Try the compound `C#C[C@]1(O)CC[C@H]2[C@@H]3CCC4=CCCC[C@@H]4[C@H]3CC[C@@]21C`
Output: midrange

Input: Try the compound NCCc1ccc(O)c(O)c1 [Dopamine HCl]
Output: midrange

Input: Try the compound CCN(CC)C(=O)N1CCN(C)CC1 [Diethylcarbamazine citrate]
Output: midrange

Input: Try the compound `CCCCCc1ccc(C)cc1O`
Output: bottom end

Reference source for all entries: the supplement of paper PMC8975748
